# System: NCI-H460
# test.summary: relative viability (nuclei count vs DMSO), 5 days (fraction); higher = more cells survive
# test.parameters: first compound 1.265 µM

compound | relative viability
Clc1ccc(Nc2nnc(Cc3ccncc3)c3ccccc23)cc1 [Vatalanib] + C[C@]1(O)C[C@@H](c2nc(-c3ccc4ccc(-c5ccccc5)nc4c3)c3c(N)nccn32)C1 [Linsitinib] (partner 1 µM) | 0.699
Clc1ccc(Nc2nnc(Cc3ccncc3)c3ccccc23)cc1 [Vatalanib] + NC(=O)Nc1cc(-c2cccc(F)c2)sc1C(=O)N[C@H]1CCCNC1 [AZD7762] (partner 0.2 µM) | 0.477
COc1cc(N2CCC(C(N)=O)CC2)ccc1Nc1nc(N)c(Cl)c(Nc2ccccc2S(=O)(=O)C(C)C)n1 [HG-5-88-01] + NC(=O)Nc1cc(-c2cccc(F)c2)sc1C(=O)N[C@H]1CCCNC1 [AZD7762] (partner 0.2 µM) | 0.611
COc1cc(N2CCC(C(N)=O)CC2)ccc1Nc1nc(N)c(Cl)c(Nc2ccccc2S(=O)(=O)C(C)C)n1 [HG-5-88-01] + Nc1nc2[nH]cc(CCc3ccc(C(=O)N[C@@H](CCC(=O)O)C(=O)O)cc3)c2c(=O)[nH]1 [Pemetrexed] (partner 0.2 µM) | 0.0633
COc1cc(N2CCC(C(N)=O)CC2)ccc1Nc1nc(N)c(Cl)c(Nc2ccccc2S(=O)(=O)C(C)C)n1 [HG-5-88-01] + CC(=O)Nc1cccc(-n2c(=O)n(C3CC3)c(=O)c3c(Nc4ccc(I)cc4F)n(C)c(=O)c(C)c32)c1 [Trametinib] (partner 0.02 µM) | 0.0779
Clc1ccc(Nc2nnc(Cc3ccncc3)c3ccccc23)cc1 [Vatalanib] + CC(=O)Nc1cccc(-n2c(=O)n(C3CC3)c(=O)c3c(Nc4ccc(I)cc4F)n(C)c(=O)c(C)c32)c1 [Trametinib] (partner 0.02 µM) | 0.135
COc1cc(N2CCC(C(N)=O)CC2)ccc1Nc1nc(N)c(Cl)c(Nc2ccccc2S(=O)(=O)C(C)C)n1 [HG-5-88-01] + Cc1cc(Nc2cc(N3CCN(C)CC3)nc(Sc3ccc(NC(=O)C4CC4)cc3)n2)n[nH]1 [Tozasertib] (partner 0.1 µM) | 0.0498
Clc1ccc(Nc2nnc(Cc3ccncc3)c3ccccc23)cc1 [Vatalanib] + CC1(C)CCC(c2ccc(Cl)cc2)=C(CN2CCN(c3ccc(C(=O)NS(=O)(=O)c4ccc(N[C@H](CCN5CCOCC5)CSc5ccccc5)c(S(=O)(=O)C(F)(F)F)c4)cc3)CC2)C1 [Navitoclax] (partner 0.5 µM) | 1.04
Clc1ccc(Nc2nnc(Cc3ccncc3)c3ccccc23)cc1 [Vatalanib] + Cc1nc(NC(=O)N2CCC[C@H]2C(N)=O)sc1-c1ccnc(C(C)(C)C(F)(F)F)c1 [Alpelisib] (partner 2 µM) | 0.467
Clc1ccc(Nc2nnc(Cc3ccncc3)c3ccccc23)cc1 [Vatalanib] + Cc1cc(Nc2cc(N3CCN(C)CC3)nc(Sc3ccc(NC(=O)C4CC4)cc3)n2)n[nH]1 [Tozasertib] (partner 0.1 µM) | 0.296
Clc1ccc(Nc2nnc(Cc3ccncc3)c3ccccc23)cc1 [Vatalanib] + CC(=O)c1c(C)c2cnc(Nc3ccc(N4CCNCC4)cn3)nc2n(C2CCCC2)c1=O [Palbociclib] (partner 0.5 µM) | 0.148
Clc1ccc(Nc2nnc(Cc3ccncc3)c3ccccc23)cc1 [Vatalanib] + CCNC(=O)c1noc(-c2cc(C(C)C)c(O)cc2O)c1-c1ccc(CN2CCOCC2)cc1 [Luminespib] (partner 0.01 µM) | 0.0261

###

# System: SK-LU-1
# test.summary: relative viability (nuclei count vs DMSO), 5 days (fraction); higher = more cells survive
# test.parameters: first compound 4 µM
Records here are stratified by relative viability; strata: low = under 0.6, moderate = from 0.6 up to 0.9, high = 0.9 and over

molecule | category.label
Clc1ccc(Nc2nnc(Cc3ccncc3)c3ccccc23)cc1 [Vatalanib] + CC(C)C[C@H](NC(=O)[C@H](Cc1ccccc1)NC(=O)c1cnccn1)B(O)O [Bortezomib] (partner 0.002 µM) | high
COc1cc(N2CCC(C(N)=O)CC2)ccc1Nc1nc(N)c(Cl)c(Nc2ccccc2S(=O)(=O)C(C)C)n1 [HG-5-88-01] + Nc1nc2[nH]cc(CCc3ccc(C(=O)N[C@@H](CCC(=O)O)C(=O)O)cc3)c2c(=O)[nH]1 [Pemetrexed] (partner 0.2 µM) | moderate
COc1cc(N2CCC(C(N)=O)CC2)ccc1Nc1nc(N)c(Cl)c(Nc2ccccc2S(=O)(=O)C(C)C)n1 [HG-5-88-01] + C[C@]1(O)C[C@@H](c2nc(-c3ccc4ccc(-c5ccccc5)nc4c3)c3c(N)nccn32)C1 [Linsitinib] (partner 1 µM) | high
Clc1ccc(Nc2nnc(Cc3ccncc3)c3ccccc23)cc1 [Vatalanib] + C[C@]1(O)C[C@@H](c2nc(-c3ccc4ccc(-c5ccccc5)nc4c3)c3c(N)nccn32)C1 [Linsitinib] (partner 1 µM) | high
COc1cc(N2CCC(C(N)=O)CC2)ccc1Nc1nc(N)c(Cl)c(Nc2ccccc2S(=O)(=O)C(C)C)n1 [HG-5-88-01] + CC1(C)CCC(c2ccc(Cl)cc2)=C(CN2CCN(c3ccc(C(=O)NS(=O)(=O)c4ccc(N[C@H](CCN5CCOCC5)CSc5ccccc5)c(S(=O)(=O)C(F)(F)F)c4)cc3)CC2)C1 [Navitoclax] (partner 0.5 µM) | moderate
C[C@@H]1CN(CC(=O)Nc2ccc3c(c2)Cc2cccc(-c4cc(=O)cc(N5CCOCC5)o4)c2S3)C[C@H](C)O1 + Cc1nc(NC(=O)N2CCC[C@H]2C(N)=O)sc1-c1ccnc(C(C)(C)C(F)(F)F)c1 [Alpelisib] (partner 2 µM) | moderate
C[C@@H]1CN(CC(=O)Nc2ccc3c(c2)Cc2cccc(-c4cc(=O)cc(N5CCOCC5)o4)c2S3)C[C@H](C)O1 + Nc1nc2[nH]cc(CCc3ccc(C(=O)N[C@@H](CCC(=O)O)C(=O)O)cc3)c2c(=O)[nH]1 [Pemetrexed] (partner 0.2 µM) | moderate
COc1cc(N2CCC(C(N)=O)CC2)ccc1Nc1nc(N)c(Cl)c(Nc2ccccc2S(=O)(=O)C(C)C)n1 [HG-5-88-01] + CC(C)C[C@H](NC(=O)[C@H](Cc1ccccc1)NC(=O)c1cnccn1)B(O)O [Bortezomib] (partner 0.002 µM) | low
Clc1ccc(Nc2nnc(Cc3ccncc3)c3ccccc23)cc1 [Vatalanib] + CS(=O)(=O)N1CCN(Cc2cc3nc(-c4cccc5[nH]ncc45)nc(N4CCOCC4)c3s2)CC1 [Pictilisib] (partner 1 µM) | low
COc1cc(N2CCC(C(N)=O)CC2)ccc1Nc1nc(N)c(Cl)c(Nc2ccccc2S(=O)(=O)C(C)C)n1 [HG-5-88-01] + Cc1nc(NC(=O)N2CCC[C@H]2C(N)=O)sc1-c1ccnc(C(C)(C)C(F)(F)F)c1 [Alpelisib] (partner 2 µM) | moderate
C[C@@H]1CN(CC(=O)Nc2ccc3c(c2)Cc2cccc(-c4cc(=O)cc(N5CCOCC5)o4)c2S3)C[C@H](C)O1 + CC(C)C[C@H](NC(=O)[C@H](Cc1ccccc1)NC(=O)c1cnccn1)B(O)O [Bortezomib] (partner 0.002 µM) | high
COc1cc(N2CCC(C(N)=O)CC2)ccc1Nc1nc(N)c(Cl)c(Nc2ccccc2S(=O)(=O)C(C)C)n1 [HG-5-88-01] + COc1cccc2cc(-c3nc([C@H]4CC[C@H](C(=O)O)CC4)n4ncnc(N)c34)[nH]c12 [OSI-027] (partner 0.5 µM) | low
C[C@@H]1CN(CC(=O)Nc2ccc3c(c2)Cc2cccc(-c4cc(=O)cc(N5CCOCC5)o4)c2S3)C[C@H](C)O1 + CC1(C)CCC(c2ccc(Cl)cc2)=C(CN2CCN(c3ccc(C(=O)NS(=O)(=O)c4ccc(N[C@H](CCN5CCOCC5)CSc5ccccc5)c(S(=O)(=O)C(F)(F)F)c4)cc3)CC2)C1 [Navitoclax] (partner 0.5 µM) | moderate
Clc1ccc(Nc2nnc(Cc3ccncc3)c3ccccc23)cc1 [Vatalanib] + N=C(N)NC(=N)NCCc1ccccc1 [Phenformin] (partner 250 µM) | low
Clc1ccc(Nc2nnc(Cc3ccncc3)c3ccccc23)cc1 [Vatalanib] + COc1cc2c(Oc3ccc(NC(=O)C4(C(=O)Nc5ccc(F)cc5)CC4)cc3F)ccnc2cc1OCCCN1CCOCC1 [Foretinib] (partner 0.25 µM) | moderate
Clc1ccc(Nc2nnc(Cc3ccncc3)c3ccccc23)cc1 [Vatalanib] + Cc1nc(NC(=O)N2CCC[C@H]2C(N)=O)sc1-c1ccnc(C(C)(C)C(F)(F)F)c1 [Alpelisib] (partner 2 µM) | high

###

# Test system: NCI-H2023
# test.summary: relative viability (nuclei count vs DMSO), 5 days (fraction); higher = more cells survive
# test.parameters: first compound 1.265 µM
I'd appreciate it if you marked entries condition met when relative viability is lower than 0.4 and condition not met when it is not.

compound | category.label
COc1cc(N2CCC(C(N)=O)CC2)ccc1Nc1nc(N)c(Cl)c(Nc2ccccc2S(=O)(=O)C(C)C)n1 [HG-5-88-01] + CS(=O)(=O)CCNCc1ccc(-c2ccc3ncnc(Nc4ccc(OCc5cccc(F)c5)c(Cl)c4)c3c2)o1 [Lapatinib] (partner 2 µM) | condition not met
Clc1ccc(Nc2nnc(Cc3ccncc3)c3ccccc23)cc1 [Vatalanib] + N=C(N)NC(=N)NCCc1ccccc1 [Phenformin] (partner 250 µM) | condition met
Clc1ccc(Nc2nnc(Cc3ccncc3)c3ccccc23)cc1 [Vatalanib] + Nc1nc2[nH]cc(CCc3ccc(C(=O)N[C@@H](CCC(=O)O)C(=O)O)cc3)c2c(=O)[nH]1 [Pemetrexed] (partner 0.2 µM) | condition met
Clc1ccc(Nc2nnc(Cc3ccncc3)c3ccccc23)cc1 [Vatalanib] + CC(C)C[C@H](NC(=O)[C@H](Cc1ccccc1)NC(=O)c1cnccn1)B(O)O [Bortezomib] (partner 0.002 µM) | condition not met

Reference source: the supplement of paper PMC10307832
